Ratio for assorted molecules
assay: Selectivity index, ratio of drug concentration in Sprague-Dawley rat lung homogenate to IC50 for human p38alpha; type: tissue-based; settings: tissue homogenate
quantity: Ratio

>>> print(df.to_string())
                           substance_smiles  quantity  result
0  C[C@H]1CCCCN1c1nnc2ccc(O[C@@H]3CC[C@H](NC(=O)Nc4cc(C(C)(C)C)nn4-c4cccc(OCCN(C)C)c4)c4ccccc43)cn12     Ratio     4.9
1  C[C@@H]1CCC[C@H](C)N1c1nnc2ccc(O[C@@H]3CC[C@H](NC(=O)Nc4cc(C(C)(C)C)nn4-c4cnn(CCN(C)C)c4)c4ccccc43)cn12     Ratio     183
2  C[C@H]1CCCCN1c1nnc2ccc(O[C@@H]3CC[C@H](NC(=O)Nc4cc(C(C)(C)C)nn4-c4cnn(CCN(C)C)c4)c4ccccc43)cn12     Ratio      70
3  Cc1ccc(-n2nc(C(C)(C)C)cc2NC(=O)N[C@H]2CC[C@@H](Oc3ccc4nnc(C(C)C)n4c3)c3ccccc32)cc1     Ratio     149
4  Cc1ccc(-n2nc(C(C)(C)C)cc2NC(=O)N[C@H]2CC[C@@H](Oc3ccc4nnc(N5CCCCC5)n4c3)c3ccccc32)cc1     Ratio      40
5  Cc1ccc(-n2nc(C(C)(C)C)cc2NC(=O)N[C@H]2CC[C@@H](Oc3ccc4nnc(N5CCC(CO)CC5)n4c3)c3ccccc32)cc1     Ratio   > 300
